# Tested on: 168753-222-R-J1-PDC complex spheroid viability
# procedure_text: Anticancer human tumor 168753-222-R-J1-PDC patient-derived bladder carcinoma cell line growth inhibition [CLK]
# experimental_parameters: second compound 3.16 µM; first compound 10 µM; stronger effect = lower value

{"columns": ["compound", "system_under_test", "viability, T/C"],
 "data": [
  ["Nc1ccccc1NC(=O)c1ccc(CNC(=O)OCc2cccnc2)cc1 + CN1CCN(c2cc(C(=O)Nc3cc4cc(-c5cnn(C)c5)ccc4cn3)ccn2)CC1", "168753-222-R-J1-PDC complex spheroid viability", "0.95%"],
  ["COc1cccc2c1C(=O)c1c(O)c3c(c(O)c1C2=O)CC(O)(C(=O)CO)CC3OC1CC(N)C(O)C(C)O1 (stereo not given) + CNC(=O)c1ccc(Nc2nc(OC3CCCC3)c3c(-c4ccc5nc(C)oc5c4)c[nH]c3n2)c(OC)c1", "168753-222-R-J1-PDC complex spheroid viability", "0.14%"],
  ["CC1COCCN1c1cc(C2(S(C)(=N)=O)CC2)nc(-c2ccnc3[nH]ccc23)n1 (stereo not given) + CN1CCN(c2cc(C(=O)Nc3cc4cc(-c5cnn(C)c5)ccc4cn3)ccn2)CC1", "168753-222-R-J1-PDC complex spheroid viability", "1.69%"],
  ["C=C(F)C(=O)N1CCN(c2nc(OCC3CCCN3C)nc3c2CCN(c2cccc4cccc(Cl)c24)C3)CC1CC#N (stereo not given) + CN1CCN(c2cc(C(=O)Nc3cc4cc(-c5cnn(C)c5)ccc4cn3)ccn2)CC1", "168753-222-R-J1-PDC complex spheroid viability", "0.23%"],
  ["COc1ccc([C@@H](O)c2cc(-c3ncnc4cc(N5CCOCC5)ccc34)c(F)cc2Cl)nn1 + CNC(=O)c1ccc(Nc2nc(OC3CCCC3)c3c(-c4ccc5nc(C)oc5c4)c[nH]c3n2)c(OC)c1", "168753-222-R-J1-PDC complex spheroid viability", "15.8%"],
  ["C=CC(=O)N1CCN(c2nc(=O)n(-c3c(C)ccnc3C(C)C)c3nc(-c4c(O)cccc4F)c(F)cc23)C(C)C1 (stereo not given) + CN1CCN(c2cc(C(=O)Nc3cc4cc(-c5cnn(C)c5)ccc4cn3)ccn2)CC1", "168753-222-R-J1-PDC complex spheroid viability", "0.22%"],
  ["COC1C=CCC(C)C(C)S(=O)(=O)NC(=O)c2ccc3c(c2)N(CC2CCC21)CC1(CCCc2cc(Cl)ccc21)CO3 (stereo not given) + CN1CCN(c2cc(C(=O)Nc3cc4cc(-c5cnn(C)c5)ccc4cn3)ccn2)CC1", "168753-222-R-J1-PDC complex spheroid viability", "0.59%"],
  ["CCCS(=O)(=O)Nc1ccc(F)c(C(=O)c2c[nH]c3ncc(-c4ccc(Cl)cc4)cc23)c1F + CNC(=O)c1ccc(Nc2nc(OC3CCCC3)c3c(-c4ccc5nc(C)oc5c4)c[nH]c3n2)c(OC)c1", "168753-222-R-J1-PDC complex spheroid viability", "26.1%"],
  ["COc1cccc2c1C(=O)c1c(O)c3c(c(O)c1C2=O)CC(O)(C(=O)CO)CC3OC1CC(N)C(O)C(C)O1 (stereo not given) + CN1CCN(c2cc(C(=O)Nc3cc4cc(-c5cnn(C)c5)ccc4cn3)ccn2)CC1", "168753-222-R-J1-PDC complex spheroid viability", "0.95%"],
  ["CC(Nc1ccc2c(c1)OCCn1cc(N3C(=O)OCC3C(F)F)nc1-2)C(N)=O (stereo not given) + CN1CCN(c2cc(C(=O)Nc3cc4cc(-c5cnn(C)c5)ccc4cn3)ccn2)CC1", "168753-222-R-J1-PDC complex spheroid viability", "0.59%"]
]}

----------
# key: entry, value: pIC50
# Test system: 168753-222-R-J1-PDC complex spheroid viability
# procedure_text: Anticancer human tumor 168753-222-R-J1-PDC cell line growth inhibition [CLK];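 also: viability measured after seven days of drug exposure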
# experimental_parameters: curve of first compound; second compound 1 µM
pIC50: −log10 of the molar value.
experimental_readout: pIC50

{"columns": ["compound", "system_under_test", "experimental_readout", "measured"],
 "data": [
  ["C=CC(=O)Nc1cc(Nc2nccc(-c3cn(C)c4ccccc34)n2)c(OC)cc1N(C)CCN(C)C + CNC(=O)c1ccc(Nc2nc(OC3CCCC3)c3c(-c4ccc5nc(C)oc5c4)c[nH]c3n2)c(OC)c1", "168753-222-R-J1-PDC complex spheroid viability", "pIC50", "> 9.02"],
  ["C=C(F)C(=O)N1CCN(c2nc(OCC3CCCN3C)nc3c2CCN(c2cccc4cccc(Cl)c24)C3)CC1CC#N (stereo not given) + CN1CCN(c2cc(C(=O)Nc3cc4cc(-c5cnn(C)c5)ccc4cn3)ccn2)CC1", "168753-222-R-J1-PDC complex spheroid viability", "pIC50", "> 7.50"],
  ["COC1C=CCC(C)C(C)S(=O)(=O)NC(=O)c2ccc3c(c2)N(CC2CCC21)CC1(CCCc2cc(Cl)ccc21)CO3 (stereo not given) + CN1CCN(c2cc(C(=O)Nc3cc4cc(-c5cnn(C)c5)ccc4cn3)ccn2)CC1", "168753-222-R-J1-PDC complex spheroid viability", "pIC50", "> 7.50"],
  ["Nc1ccn(C2OC(CO)C(O)C2(F)F)c(=O)n1 (stereo not given) + CN1CCN(c2cc(C(=O)Nc3cc4cc(-c5cnn(C)c5)ccc4cn3)ccn2)CC1", "168753-222-R-J1-PDC complex spheroid viability", "pIC50", "> 7.50"],
  ["Cn1ncnc1[C@H]1c2n[nH]c(=O)c3cc(F)cc(c23)N[C@@H]1c1ccc(F)cc1 + CN1CCN(c2cc(C(=O)Nc3cc4cc(-c5cnn(C)c5)ccc4cn3)ccn2)CC1", "168753-222-R-J1-PDC complex spheroid viability", "pIC50", "> 9.50"],
  ["O=c1[nH]cc(F)c(=O)[nH]1 + CN1CCN(c2cc(C(=O)Nc3cc4cc(-c5cnn(C)c5)ccc4cn3)ccn2)CC1", "168753-222-R-J1-PDC complex spheroid viability", "pIC50", "> 7.50"],
  ["CC1COCCN1c1cc(C2(S(C)(=N)=O)CC2)nc(-c2ccnc3[nH]ccc23)n1 (stereo not given) + CN1CCN(c2cc(C(=O)Nc3cc4cc(-c5cnn(C)c5)ccc4cn3)ccn2)CC1", "168753-222-R-J1-PDC complex spheroid viability", "pIC50", "> 7.50"],
  ["COc1ccc([C@@H](O)c2cc(-c3ncnc4cc(N5CCOCC5)ccc34)c(F)cc2Cl)nn1 + CN1CCN(c2cc(C(=O)Nc3cc4cc(-c5cnn(C)c5)ccc4cn3)ccn2)CC1", "168753-222-R-J1-PDC complex spheroid viability", "pIC50", "> 7.50"],
  ["COc1c(OCCCN2CCOCC2)ccc2c3n(c(=NC(=O)c4cnc(N)nc4)nc12)CCN3 + CNC(=O)c1ccc(Nc2nc(OC3CCCC3)c3c(-c4ccc5nc(C)oc5c4)c[nH]c3n2)c(OC)c1", "168753-222-R-J1-PDC complex spheroid viability", "pIC50", "> 8.50"],
  ["CC1(C)CCC(CN2CCN(c3ccc(C(=O)NS(=O)(=O)c4ccc(NCC5CCOCC5)c([N+](=O)[O-])c4)c(Oc4cnc5[nH]ccc5c4)c3)CC2)=C(c2ccc(Cl)cc2)C1 + CN1CCN(c2cc(C(=O)Nc3cc4cc(-c5cnn(C)c5)ccc4cn3)ccn2)CC1", "168753-222-R-J1-PDC complex spheroid viability", "pIC50", "> 7.50"]
]}

----------
# System: 168753-222-R-J1-PDC complex spheroid viability
# procedure_text: Anticancer human tumor 168753-222-R-J1-PDC cell line growth inhibition [CLK];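 also: viability measured after seven days of drug exposure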;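 as to viability, T/C: luminescence signal used as surrogate for viable cell amount; 100% = DMSO vehicle control wells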
# experimental_parameters: second compound 3.16 µM; first compound 3.16 µM; stronger effect = lower value

{"columns": ["molecule", "system_under_test", "viability, T/C"],
 "data": [
  ["COc1cccc2c1C(=O)c1c(O)c3c(c(O)c1C2=O)CC(O)(C(=O)CO)CC3OC1CC(N)C(O)C(C)O1 (stereo not drawn) + CN1CCN(c2cc(C(=O)Nc3cc4cc(-c5cnn(C)c5)ccc4cn3)ccn2)CC1", "168753-222-R-J1-PDC complex spheroid viability", "0.27%"],
  ["CCCS(=O)(=O)Nc1ccc(F)c(C(=O)c2c[nH]c3ncc(-c4ccc(Cl)cc4)cc23)c1F + CN1CCN(c2cc(C(=O)Nc3cc4cc(-c5cnn(C)c5)ccc4cn3)ccn2)CC1", "168753-222-R-J1-PDC complex spheroid viability", "2.3%"],
  ["CC1COCCN1c1cc(C2(S(C)(=N)=O)CC2)nc(-c2ccnc3[nH]ccc23)n1 (stereo not drawn) + CN1CCN(c2cc(C(=O)Nc3cc4cc(-c5cnn(C)c5)ccc4cn3)ccn2)CC1", "168753-222-R-J1-PDC complex spheroid viability", "0.26%"]
]}
